- study.target: FLT3 enzyme (GST-FLT3 fusion) (Homo sapiens (Human))
- assay.text: FLT3 HTRF kinase assay
- conditions.used: 116 μM ATP
- Experimental: The FLT3 inhibitory activity of the CDK4/6-FLT3 inhibitors was determined with a HTRF kinase assay. The FLT3 enzyme (GST-FLT3 fusion) was purchased from Carna Biosciences. […] The plates were incubated at room temperature for 2 hours after addition of detection reagents and then read on an Envision multimode reader (PerkinElmer). IC50 values of the compounds in the above assays were determined by non-linear regression analysis using Prism (GraphPad Software).
In this section, each of the compounds is paired with its reported IC50.
Provide the measurement as a number trailed by its unit.

Observe how each entry below is paired with its result.
| compound | IC50 |
| --- | --- |
| C[C@H]1CC[C@H](n2c3cnccc3c3cnc(Nc4cc5c(cn4)CCNC5)nc32)CC1 | 73.7 nM |
| CS(=O)(=O)CCN1CCc2nc(Nc3ncc4c5ccncc5n([C@H]5CC[C@H](C)CC5)c4n3)ccc2C1 | 36.1 nM |
| C[C@H]1CC[C@H](n2c3cnccc3c3cnc(Nc4ccc5c(n4)CCNC5)nc32)CC1 | 1.3 nM |
| C[C@H]1CC[C@H](n2c3cnccc3c3cnc(Nc4cc5c(cn4)CCN(CCO)C5)nc32)CC1 | 2.7 nM |

IC50 recorded for this compound, C[C@H]1CC[C@H](n2c3cnccc3c3cnc(Nc4ccc5c(n4)CCN(CCCO)C5)nc32)CC1 , is 2 nM

IC50 recorded for this compound, C[C@H]1CC[C@H](n2c3cnccc3c3cnc(Nc4ccc5c(n4)CCN(CCO)C5)nc32)CC1 , is 1.8 nM

IC50 recorded for this compound, CC(=O)N1Cc2ccc(Nc3ncc4c5ccncc5n([C@H]5CC[C@H](C)CC5)c4n3)nc2[C@@H](C)C1 (single isomer, unassigned) [Example 18b] , is 2.3 nM

IC50 recorded for this compound, CC(=O)N1Cc2ccc(Nc3ncc4c5ccncc5n([C@H]5CC[C@H](C)CC5)c4n3)nc2C(C)C1 (some centres unmarked) , is 3.2 nM

IC50 recorded for this compound, CC1CNCc2ccc(Nc3ncc4c5ccncc5n([C@H]5CC[C@H](C)CC5)c4n3)nc21 (some centres unmarked) , is 1.8 nM

IC50 recorded for this compound, CC(=O)N1CCc2nc(Nc3ncc4c5ccncc5n([C@H]5CC[C@H](C)CC5)c4n3)ccc2C1 , is 3.2 nM

----------
- study.target: FLT3 enzyme (GST-FLT3 fusion) (Homo sapiens (Human), UniProt P36888)
- Sequence (P36888 27-993): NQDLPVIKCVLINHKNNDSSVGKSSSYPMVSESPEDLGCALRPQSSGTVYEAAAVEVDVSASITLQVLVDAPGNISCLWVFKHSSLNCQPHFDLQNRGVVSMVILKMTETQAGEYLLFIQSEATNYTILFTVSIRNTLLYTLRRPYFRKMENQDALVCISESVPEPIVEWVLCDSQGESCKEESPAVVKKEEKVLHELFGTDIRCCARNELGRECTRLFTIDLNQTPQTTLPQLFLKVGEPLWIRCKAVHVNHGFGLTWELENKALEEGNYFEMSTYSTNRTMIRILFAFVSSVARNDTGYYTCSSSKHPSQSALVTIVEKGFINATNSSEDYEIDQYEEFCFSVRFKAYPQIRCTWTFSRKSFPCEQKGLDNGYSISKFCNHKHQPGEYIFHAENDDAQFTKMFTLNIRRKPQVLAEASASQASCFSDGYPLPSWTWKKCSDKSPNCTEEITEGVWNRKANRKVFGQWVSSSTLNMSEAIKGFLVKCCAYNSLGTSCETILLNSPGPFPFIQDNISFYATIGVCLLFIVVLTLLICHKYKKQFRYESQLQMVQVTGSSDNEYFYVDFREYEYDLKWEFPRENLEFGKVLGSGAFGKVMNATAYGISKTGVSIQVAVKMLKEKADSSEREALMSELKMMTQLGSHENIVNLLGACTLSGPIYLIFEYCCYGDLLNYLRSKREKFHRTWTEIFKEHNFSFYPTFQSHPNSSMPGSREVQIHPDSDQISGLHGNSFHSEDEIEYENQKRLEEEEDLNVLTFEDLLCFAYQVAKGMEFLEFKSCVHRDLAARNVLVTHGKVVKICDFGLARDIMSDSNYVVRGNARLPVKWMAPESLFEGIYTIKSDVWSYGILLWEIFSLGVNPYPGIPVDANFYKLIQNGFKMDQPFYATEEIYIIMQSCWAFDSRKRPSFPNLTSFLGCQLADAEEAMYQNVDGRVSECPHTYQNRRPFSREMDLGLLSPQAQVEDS
- assay.text: FLT3 HTRF kinase assay
- conditions.used: 116 μM ATP
The label is TRUE for IC50 below 3 nM and FALSE for IC50 equal to or exceeding 3 nM.

Example results:
| compound | study.target | group.label |
| --- | --- | --- |
| O=C(CO)N1CCc2nc(Nc3ncc4c5ccncc5n(C5CCCC5)c4n3)ccc2C1 | FLT3 enzyme (GST-FLT3 fusion) (Homo sapiens (Human), UniProt P36888) | TRUE |
| CC(=O)N1Cc2ccc(Nc3ncc4c5ccncc5n([C@H]5CC[C@H](C)CC5)c4n3)nc2[C@H](C)C1 (single isomer, unassigned) [Example 18a] | FLT3 enzyme (GST-FLT3 fusion) (Homo sapiens (Human), UniProt P36888) | TRUE |
| CC1CN(CCO)Cc2ccc(Nc3ncc4c5ccncc5n([C@H]5CC[C@H](C)CC5)c4n3)nc21 (stereo partly shown) | FLT3 enzyme (GST-FLT3 fusion) (Homo sapiens (Human), UniProt P36888) | FALSE |

Please indicate whether the reported IC50 of COCCN1CCc2nc(Nc3ncc4c5ccncc5n([C@H]5CC[C@H](C)CC5)c4n3)ccc2C1 is strictly below 3 nM.
TRUE

Please indicate whether the reported IC50 of C[C@H]1CC[C@H](n2c3cnccc3c3cnc(Nc4ccc5c(n4)CCN(CCC(F)(F)F)C5)nc32)CC1 is strictly below 3 nM.
FALSE

Please indicate whether the reported IC50 of C[C@H]1CC[C@H](n2c3cnccc3c3cnc(Nc4ccc5c(n4)CCN(C(=O)CO)C5)nc32)CC1 is strictly below 3 nM.
TRUE

Please indicate whether the reported IC50 of COc1cc2c3cnc(Nc4ccc5c(n4)CCNC5)nc3n([C@H]3CC[C@H](C)CC3)c2cn1 is strictly below 3 nM.
FALSE

----------
In this section, each of the compounds is paired with its reported IC50.
- study.target: CDK4/Cyclin D1 (Homo sapiens (Human), UniProt P11802)
- Sequence (P11802 whole entry): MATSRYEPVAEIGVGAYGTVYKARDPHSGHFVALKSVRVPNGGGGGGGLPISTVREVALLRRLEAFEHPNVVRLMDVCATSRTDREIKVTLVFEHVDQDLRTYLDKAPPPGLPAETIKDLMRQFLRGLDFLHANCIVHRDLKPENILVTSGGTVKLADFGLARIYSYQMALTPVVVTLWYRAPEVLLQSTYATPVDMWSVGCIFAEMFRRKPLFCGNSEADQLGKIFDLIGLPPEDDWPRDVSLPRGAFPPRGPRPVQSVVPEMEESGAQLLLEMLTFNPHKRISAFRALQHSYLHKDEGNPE
- Sequence (P24385 whole entry partner): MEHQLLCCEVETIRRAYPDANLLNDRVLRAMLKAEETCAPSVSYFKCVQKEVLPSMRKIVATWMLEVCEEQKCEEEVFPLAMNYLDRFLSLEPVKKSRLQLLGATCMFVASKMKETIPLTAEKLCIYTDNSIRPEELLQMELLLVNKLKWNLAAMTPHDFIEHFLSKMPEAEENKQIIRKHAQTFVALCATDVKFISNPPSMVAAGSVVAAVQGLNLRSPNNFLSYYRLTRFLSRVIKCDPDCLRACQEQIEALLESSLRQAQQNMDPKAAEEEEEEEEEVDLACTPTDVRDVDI
- assay.text: CDK4 filtration kinase assay
- conditions.used: CDK4/Cyclin D1, Rb fragment substrate, [33P]-ATP filtration assay
Numeric only. Scale: µM

| compound | IC50 (µM) |
| --- | --- |
| C[C@H]1CC[C@H](n2c3cnccc3c3cnc(Nc4ccc5c(n4)C(O)CNC5)nc32)CC1 (stereo partly shown) [Example 16] | 0.0165 |

IC50 recorded for this compound, C[C@H]1CC[C@H](n2c3cnccc3c3cnc(Nc4cc5c(cn4)CNCC5)nc32)CC1 [Example 24] , is 0.0047

IC50 recorded for this compound, C[C@H]1CC[C@H](n2c3cnccc3c3cnc(Nc4cc5c(cn4)CCN(CCO)C5)nc32)CC1 [Example 12] , is 0.0184

IC50 recorded for this compound, CCN(CC)CC(=O)N1CCc2nc(Nc3ncc4c5ccncc5n([C@H]5CC[C@H](C)CC5)c4n3)ccc2C1 [Example 37] , is 0.003

----------
- study.target: CDK4/Cyclin D1 (Homo sapiens (Human), UniProt P11802)
- assay.text: CDK4 filtration kinase assay
- Assay type: biochemical
- conditions.used: CDK4/Cyclin D1, Rb fragment substrate, [33P]-ATP filtration assay
measurement.type: IC50 (nM)
Numeric only. Scale: nM

| compound | IC50 (nM) |
| --- | --- |
| CC1CNCc2ccc(Nc3ncc4c5ccncc5n([C@H]5CC[C@H](C)CC5)c4n3)nc21 (stereo partly drawn) | 31.3 |
| CS(=O)(=O)CCN1CCc2nc(Nc3ncc4c5ccncc5n([C@H]5CC[C@H](C)CC5)c4n3)ccc2C1 | 2.4 |
| CC(=O)N1CCc2nc(Nc3ncc4c5ccncc5n([C@H]5CC[C@H](C)CC5)c4n3)ccc2C1 | 4.5 |
| CC1CN(CCO)Cc2ccc(Nc3ncc4c5ccncc5n([C@H]5CC[C@H](C)CC5)c4n3)nc21 (stereo partly drawn) | 20.3 |
| C[C@H]1CC[C@H](n2c3cnccc3c3cnc(Nc4cc5c(cn4)CCNC5)nc32)CC1 | 257 |
| CC(=O)N1Cc2ccc(Nc3ncc4c5ccncc5n([C@H]5CC[C@H](C)CC5)c4n3)nc2[C@@H](C)C1 (single isomer, unassigned) [Example 18b] | 463 |
| COc1cc2c3cnc(Nc4ccc5c(n4)CCNC5)nc3n([C@H]3CC[C@H](C)CC3)c2cn1 | 1790 |
| C[C@H]1CC[C@H](n2c3cnccc3c3cnc(Nc4cc5c(cn4)CN(C(=O)CO)CC5)nc32)CC1 | 35 |
| COCCN1CCc2nc(Nc3ncc4c5ccncc5n([C@H]5CC[C@H](C)CC5)c4n3)ccc2C1 | 10.5 |
| C[C@@H](O)C(=O)N1CCc2nc(Nc3ncc4c5ccncc5n([C@H]5CC[C@H](C)CC5)c4n3)ccc2C1 | 41 |

IC50 recorded for this compound, O=C(CO)N1CCc2nc(Nc3ncc4c5ccncc5n(C5CCCC5)c4n3)ccc2C1 , is 36

IC50 recorded for this compound, C[C@H]1CC[C@H](n2c3cnccc3c3cnc(Nc4ccc5c(n4)CCN(CCO)C5)nc32)CC1 , is 2.6

IC50 recorded for this compound, CN(C)CC(=O)N1CCc2nc(Nc3ncc4c5ccncc5n([C@H]5CC[C@H](C)CC5)c4n3)ccc2C1 , is 3

IC50 recorded for this compound, COc1cc2c3cnc(Nc4ccc5c(n4)CCN(C(=O)CO)C5)nc3n([C@H]3CC[C@H](C)CC3)c2cn1 , is 847

IC50 recorded for this compound, C[C@H]1CC[C@H](n2c3cnccc3c3cnc(Nc4ccc5c(n4)CN(C(=O)CO)CC5)nc32)CC1 , is 6.3

----------
- study.target: CDK4/Cyclin D1 (Homo sapiens (Human))
- assay.text: CDK4 filtration kinase assay
- conditions.used: CDK4/Cyclin D1, Rb fragment substrate, [33P]-ATP filtration assay
measurement.type: pIC50
The scale used: pIC50 is minus the common logarithm of the concentration in molar units.

Observe how each entry below is paired with its result.
| molecule | pIC50 |
| --- | --- |
| CC(=O)N1Cc2ccc(Nc3ncc4c5ccncc5n([C@H]5CC[C@H](C)CC5)c4n3)nc2C(C)C1 (stereo partly drawn) [Example 14] | 8.36 |
| CC(=O)N1Cc2ccc(Nc3ncc4c5ccncc5n([C@H]5CC[C@H](C)CC5)c4n3)nc2[C@H](C)C1 (single isomer, unassigned) [Example 18a] | 7.73 |

Let us move to another entry and its pIC50.
Entry CC(C)(C)OC(=O)N1CCc2ccc(Nc3ncc4c5ccncc5n([C@H]5CC[C@H](C)CC5)c4n3)nc2C1 [Example 35] , tested on CDK4/Cyclin D1 (Homo sapiens (Human)), has a reported pIC50 of 7.59

Just for reference, patent US8623885B2 is where these values come from.
